The values you see were collected from patent US20200262898A1.

Recorded S:B Expression values for a group of binders are listed next.
# assay_target: Fc-binding protein (the ZZ domain of ProA)
# protocol_text: flow cytometry on cells expressing the Fc-binding ZZ domain on their surface; given as a measure of expression

binder	quantity_name	value_observed
Antibody of common light chain F10 (F10chicken) paired with the heavy chain against CD147 (antibody, V domains shown) VH: AVTLDESGGGLQTPGGGLSLVCKASGFTFSSYAMYWVRQAPGKGLQWVAGISRDGSSGRYGAAVKGRATISRDNGQSTVRLQLNNLRAEDTATYFCAKSGYGDYTSADEIDAWGHGTEVIVSS VL: ALTQPSSVSANPGETVKITCSGGYNGHYGWYQQKSPGSAPVTVIYSNNQRPSNIPSRFSGSTSGSTSTLTITGVRAEDEAVYFCGGYDSSAGIFGAGTTLTVL	S:B Expression	15.5 S:B
Antibody of common light chain F10 (F10chicken) paired with the heavy chain against CD81 (antibody, V domains shown) VH: AVTLDESGGGLQTPGGALSLVCKASGFSIGDYNMGWVRQAPGKGLEWVAGIDAGGGTWRATAVKGRATISRDNGQSTVRLQLNNLRAEDTATYFCAKSTDSSANCCANSIDAWGHGTEVIVSS VL: ALTQPSSVSANPGETVKITCSGGYNGHYGWYQQKSPGSAPVTVIYSNNQRPSNIPSRFSGSTSGSTSTLTITGVRAEDEAVYFCGGYDSSAGIFGAGTTLTVL	S:B Expression	11.1 S:B

Could you now consider this next binder?
[ask] Supply recorded S:B Expression for Antibody of common light chain F10 (F10chicken) paired with the heavy chain against CD59 (antibody, V domains shown) VH: AVTLDESGGGLQTPGGGLSLVCKASGFDFSSFDMVWVRQAPGKGLEWVAGISYSNTDTSYAPAVDGRATISRDNGQSTVRLQLNNLRAEDSATYYCAKSAGGCCYRADNIDAWGHGTEVIVSS VL: ALTQPSSVSANPGETVKITCSGGYNGHYGWYQQKSPGSAPVTVIYSNNQRPSNIPSRFSGSTSGSTSTLTITGVRAEDEAVYFCGGYDSSAGIFGAGTTLTVL here.
[reply] 12.2 S:B
